Biological target: membrane-bound IgM (mIgM, immunoglobulin heavy mu chain of B-cell receptor) (Homo sapiens, UniProt P01871 P01871:1-474)
Sequence (P01871 whole entry, one chain of several): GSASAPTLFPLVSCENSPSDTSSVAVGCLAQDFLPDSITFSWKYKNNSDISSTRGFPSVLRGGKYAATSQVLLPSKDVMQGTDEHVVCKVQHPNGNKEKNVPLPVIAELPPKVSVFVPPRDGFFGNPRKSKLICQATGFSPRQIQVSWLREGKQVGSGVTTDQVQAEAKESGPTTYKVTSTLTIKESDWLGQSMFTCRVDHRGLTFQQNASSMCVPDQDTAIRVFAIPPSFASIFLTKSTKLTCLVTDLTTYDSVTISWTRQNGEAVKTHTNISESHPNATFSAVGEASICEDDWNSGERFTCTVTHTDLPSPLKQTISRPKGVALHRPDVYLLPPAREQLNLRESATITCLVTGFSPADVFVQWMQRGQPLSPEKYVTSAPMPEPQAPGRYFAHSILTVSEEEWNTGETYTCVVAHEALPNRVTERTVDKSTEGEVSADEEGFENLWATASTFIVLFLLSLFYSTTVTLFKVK
Experiment: flow; Bmax/2 on Ramos cells, 4 C
Settings: tags: endogenous on Ramos Burkitt's lymphoma cells; label: 5' FITC or Cy3; stem-loop hairpin
observed property: pKd
Field pKd (float): negative decimal logarithm of the concentration in molar.

pKd for AGGAGGATAGTTCGGTGGCTGTTCAGGGTCTCCTCCT (ssDNA, LNA at last four nucleotides (3' stem pyrimidines TCCT) [34,35,36,37 (LNA)]) [TD05.17] is 7.37
